Biological target: recombinant human ALK5 (TGF-βR1) protein (Homo sapiens, UniProt P36897)
Construct: purchased Life Technologies PR9075A
Sequence (P36897 34-503): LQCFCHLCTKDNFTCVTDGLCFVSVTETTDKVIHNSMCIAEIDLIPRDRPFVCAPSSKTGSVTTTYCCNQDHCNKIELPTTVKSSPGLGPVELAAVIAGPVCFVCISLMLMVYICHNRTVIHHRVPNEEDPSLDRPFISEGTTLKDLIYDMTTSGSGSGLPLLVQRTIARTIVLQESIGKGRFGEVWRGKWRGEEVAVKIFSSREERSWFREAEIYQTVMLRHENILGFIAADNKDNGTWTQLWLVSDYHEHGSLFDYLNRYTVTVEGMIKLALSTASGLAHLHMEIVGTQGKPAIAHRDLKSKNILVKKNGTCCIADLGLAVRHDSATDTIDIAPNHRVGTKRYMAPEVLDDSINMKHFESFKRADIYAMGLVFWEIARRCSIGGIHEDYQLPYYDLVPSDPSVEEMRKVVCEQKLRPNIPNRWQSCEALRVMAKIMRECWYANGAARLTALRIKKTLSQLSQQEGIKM
Experiment: Biochemical ALK5 (TGF-βR1) assay to measure pKi (LANCE Ultra ULight kinase assay)
Settings: apparent pKi from pIC50 by Cheng-Prusoff, read-out: ALK5 pKi (converted)
measuredProperty: Ki

[
  {
    "compound": "Cc1cccc(-c2[nH]cnc2-c2ccc3ncc(-c4ccc(C(=O)O[C@H]5CCN(C)C5)s4)cc3c2)n1 [Compound 1008]",
    "Ki": "39.8 to 316 pM"
  },
  {
    "compound": "Cc1cccc(-c2n[nH]cc2-c2ccc3nccc(CCCN4CCOCC4)c3n2)n1 [Compound 812]",
    "Ki": "398 to 3160 pM"
  }
]

We next turn to a different compound, shown below.
What the record says about Cc1cccc(-c2n[nH]cc2-c2ccc3ncc(-c4cccnc4)cc3n2)n1 [Compound 595] : Ki is < 31.6 pM
